Origin of values: a melting point compilation (Tetko et al.; mined from patent text by program, amines drawn as free bases though some values may be those of a salt)

metric: melting point

compound: CCCC(=O)Cc1cc(OC)ccc1NC(=O)OC(C)(C)C
melting point: 77 to 78 °C

Consider the record given below.
Given the compound "NNc1nccc2nc(-c3ccccc3)nn12" , what is its reported melting point?
216 to 218 °C

----------
metric: melting point

Here is how some molecules turned out for melting point.
molecule: O=C(Nc1ccccc1)OCc1cn(-c2cc3cc(C(=O)O)c(=O)[nH]c3cc2C(F)(F)F)cn1
melting point: 178 to 180 °C
//
molecule: CC(C)C(=O)Oc1ccc2c(c1Cl)Sc1ccccc1N2C
melting point: 147 °C
//
molecule: O=C1CCCc2c(-c3ccncc3)[nH]c(-c3ccccc3)c21
melting point: 259 to 260 °C
//
molecule: N#Cc1ccc(-n2c(N)nc3ccccc32)cc1-c1ccoc1
melting point: 140 to 144 °C
//
molecule: CCC(C)c1cc(Cl)cc(Cl)c1OCC(=O)N1CCSC1=S (configuration not stated)
melting point: 96 °C

Data request, read-out melting point, for "N=c1ncccn1CCc1ccccc1Br"
97 to 98 °C

Which melting point is listed for "CC(C)(C)NC(=O)[C@@H]1CCCN1C(=O)[C@@H](O)[C@H](Cc1ccccc1)NC(=O)[C@H](CC(N)=O)NC(=O)COc1cccc(N)c1" ?
108 to 114 °C

Entry "Cn1ncnc1COc1nn2c(-c3ccccc3F)nnc2cc1C1(C)CCOCC1" : reported melting point = ?
191 °C

Need melting point of "CC(=O)Nc1nc2c(Oc3cc(-c4ccc(Br)cc4)ncn3)cccc2s1" , thanks.
271 to 272 °C

So what's the measured melting point for this one? "Cc1cccc(C(=O)c2cc3c(ccc4ccccc43)oc2=O)c1"
190 to 192 °C

Could you share which melting point value was measured for CCCC(=O)OCC1OC(n2cnc3c(OC)nc(N)nc32)C(O)C1O (configuration not stated) ?
105 °C

Fill blank: measured melting point of the molecule "COC(=O)CCC(=O)N1CCc2cc(S(=O)(=O)N3CCN(c4ccc(F)cc4)CC3)ccc21" is ____.
213 to 215 °C

GET /values?readout=melting point&item= "OCCCc1c[nH]c2ccc(-n3cnnc3)cc12"
205 to 207 °C

Any idea what its melting point is? The molecule is O=[N+]([O-])C1=C2N(Cc3ccc(Cl)nc3)CCCN2C2CCC1O2 (configuration not stated)
143 to 145 °C

Fill in the blank: the reported melting point of "OCc1cc(Br)cnc1Cl" is ____.
86.7 to 87.5 °C
